Tested on: HEK-CMV-Luc2-Hygro cells
assay_info: High-throughput genome-wide siRNA screen and validation screen for luciferase expression
Format: cell-based, human
test_context: Table 6; polyamine pathway gene siRNAs
Kindly apply the following: YES if Per cell luciferase yield (%) is less than 90%, NO in every other case.

Consider the following illustrative entries.
**Q:** I wonder whether 220 (CCGGGAAAGUUUGACUGCATT; chemistry not given here; listed as Homo sapiens) [compound 220] has Per cell luciferase yield (%) below 90%. Can you tell?
**A:** NO

**Q:** Input 221 (CCACGACCAGCUUAAAGAATT; chemistry not given here; listed as Homo sapiens) [compound 221] ; condition: Per cell luciferase yield (%) strictly below 90%. Does it hold?
**A:** NO

**Q:** Please indicate whether the reported Per cell luciferase yield (%) of 225 (GCUUGCAGUUAAUAUCAUUTT; chemistry not given here; listed as Homo sapiens) [compound 225] is strictly below 90%.
**A:** YES

**Q:** Hello, is Per cell luciferase yield (%) of the following substance strictly smaller than 90%? 224 (GCAUGUAUCUGCUUGAUAUTT; chemistry not given here; listed as Homo sapiens) [compound 224]
**A:** YES

**Q:** Just wondering, is Per cell luciferase yield (%) of 217 (ACAUCGUCCACUUCCAGUATT; chemistry not given here; listed as Homo sapiens) [compound 217] below 90%?
**A:** NO

Continuing:
**Q:** Given 214 (CCGUAGACUCGCUCAUCUCTT; chemistry not given here; listed as Homo sapiens) [compound 214] , is recorded Per cell luciferase yield (%) strictly lower than 90%?
**A:** NO

**Q:** Hi there! Is Per cell luciferase yield (%) for 218 (GGACCUCCCUGUGAAUGAUTT; chemistry not given here; listed as Homo sapiens) [compound 218] below 90%, do you know?
**A:** NO

**Q:** Is 90% strictly greater than the substance's reported Per cell luciferase yield (%)? substance: 227 (CGAUGAACAUGUUAGACAUTT; chemistry not given here; listed as Homo sapiens) [compound 227]
**A:** YES

**Q:** Problem: For the substance 226 (CACUCGCAGUUAAUAUCAUTT; chemistry not given here; listed as Homo sapiens) [compound 226] , is Per cell luciferase yield (%) under 90%?
**A:** YES

**Q:** Lab note: confirm whether the reported Per cell luciferase yield (%) for this substance is below 90%, equality not counting. substance: 228 (GCCCUCUGUUGGAUAUCUATT; chemistry not given here; listed as Homo sapiens) [compound 228]
**A:** YES

###

Tested on: HEK-CMV-Luc2-Hygro cells
assay_info: High-throughput genome-wide siRNA screen and validation screen for luciferase expression
Assay type: cell-based, human
test_context: Table 6; polyamine pathway gene siRNAs
We begin with a simple list: items and their reported Viable cell number (%).
Your answer is read as %, so omit the unit and give the number.

Completed entries (count: 6):
According to the records, this substance 215 (GCUAACUUAUUCUACUCCGTT; chemistry not given here; listed as Homo sapiens) [compound 215] displays Viable cell number (%) of 110.6

Entry 228 (GCCCUCUGUUGGAUAUCUATT; chemistry not given here; listed as Homo sapiens) [compound 228] — recorded Viable cell number (%) = 72.1

The substance listed as 224 (GCAUGUAUCUGCUUGAUAUTT; chemistry not given here; listed as Homo sapiens) [compound 224] shows Viable cell number (%) equal to 50.7

Memo: 213 (GGCUGAAUGUAACAGAGGATT; chemistry not given here; listed as Homo sapiens) [compound 213] , reported Viable cell number (%): 94.9

Sample 218 (GGACCUCCCUGUGAAUGAUTT; chemistry not given here; listed as Homo sapiens) [compound 218] ; Viable cell number (%) observed: 86.0

Per the record, 222 (GACUUUCACUUCCGCCUUATT; chemistry not given here; listed as Homo sapiens) [compound 222] has Viable cell number (%) of 87.7

***
// sample 221 (CCACGACCAGCUUAAAGAATT; chemistry not given here; listed as Homo sapiens) [compound 221] , its Viable cell number (%) was 95.76

The value of Viable cell number (%) measured for the substance 156 (GAUUAUCCUUGUACUUUGATT; chemistry not given here; listed as Homo sapiens) [compound 156] turned out to be 101.9

Entry 219 (CAGAUGGAUUAUUAGCUGATT; chemistry not given here; listed as Homo sapiens) [compound 219] , Viable cell number (%) reported as 105.4

Consider 214 (CCGUAGACUCGCUCAUCUCTT; chemistry not given here; listed as Homo sapiens) [compound 214] . Its measured Viable cell number (%) is 85.4

# Viable cell number (%) (substance: 217 (ACAUCGUCCACUUCCAGUATT; chemistry not given here; listed as Homo sapiens) [compound 217] ) is 96.3
